# tgt: soluble IL-6R in cynomolgous plasma (cynomolgus monkey, UniProt A0A2K5WN54)
# assay_summary: plasma potency ELISA, purified Nanobody; competitor IL-6; cyno plasma
experimental_readout: IC50

Worked cases, IC50 given:
>>> result("IL6RPMP105E1 (VHH) VHH: EVQLVESGGGLVQAGGSLRLSCAASGSIFSIKAMGWYRQAPGKQRELVARITSGGSTYYADSVKGRFTISRDNAKNTVYLQMNSLKPEDTAVFYCNAIVTDSDYDLGNDYWGQGTQVTVSS")
"0.62 nM"
>>> result("IL6RPMP103H9 (VHH) VHH: EVQLVESGGGLVQPGGSLRLSCAASKSIFDINAMYWHRQAPGKQRESVASITSGGMRNYADSVKDRFTISKDNAKNTVYLQMNGLKPDDTAVYYCGLGRYEGGVWRDYWGQGTQVTVSS")
"14.8 nM"
>>> result("IL6RPMP107A9 (VHH) VHH: EVQLVESGGGLVQAGGSLRLSCAASGGIFSDMFMGWFRQAPGKSRESVARISPSGNTFYQDSVRGRFTISTDNAKNTVYLQMNNLKPEDTAVYYCAANVGVTGSYEYWGQGTQVTVSS")
"4.7 nM"

Each binder below has a reported value. Please supply its IC50.
1. IL6RPMP108E1 (VHH) VHH: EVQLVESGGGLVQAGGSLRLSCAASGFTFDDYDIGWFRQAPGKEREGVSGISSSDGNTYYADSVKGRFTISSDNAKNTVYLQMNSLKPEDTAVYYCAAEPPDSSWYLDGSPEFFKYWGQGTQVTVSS
2. IL6RPMP103C4 (VHH) VHH: EVQLVESGGGLVEAGGSLRLSCAAAGRTLSSYSMAWFRQAPGKEREFVAIIRGNPSRTYHSDSVKGRFTASRDNAKNTVYLQMNRLEPEDTAVYYCAADPPPFASDYSAPQSYDYWGQGTQVTVSS
3. IL6RPMP107A1 (VHH) VHH: EVQLVESGGGLVQAGGSLNLSCNASGDIGSINAMGWYRQAPGQQREWVAVITDTDSTIYPDSVKGRFAISRDGAKNTVHLRMSSLKPEDTAVYYCNAYQAGWGDYWGQGTQVTVSS
4. IL6RPMP104B8 (VHH) VHH: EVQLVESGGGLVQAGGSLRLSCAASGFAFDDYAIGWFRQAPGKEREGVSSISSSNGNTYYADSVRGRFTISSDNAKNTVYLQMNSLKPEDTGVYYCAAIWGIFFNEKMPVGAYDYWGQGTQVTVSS
5. IL6RPMP120A5 (VHH) VHH: EVQLVESGGGLVQAGGSLSLSCATSGRTISDDTMAWFRQAPGKEREFVAIITFNGARTHYSDSVRDRFTISRDNAKNTVYLQMNSLKSEDTAVYYCAASTKYYSSTYNYIHPAFYDIWGQGTQVTVSS

Result ::
1: 29.1 nM; 2: 2.7 nM; 3: 47.8 nM; 4: 252 nM; 5: 0.55 nM
